target: UGT1A3 (Homo sapiens, UniProt P35503); assay: Inhibition of 4-MU glucuronidation by recombinant UGT1A3; conditions: recombinant UGT1A3, pH 7.4, probe 4-MU
Sequence (P35503 29-534): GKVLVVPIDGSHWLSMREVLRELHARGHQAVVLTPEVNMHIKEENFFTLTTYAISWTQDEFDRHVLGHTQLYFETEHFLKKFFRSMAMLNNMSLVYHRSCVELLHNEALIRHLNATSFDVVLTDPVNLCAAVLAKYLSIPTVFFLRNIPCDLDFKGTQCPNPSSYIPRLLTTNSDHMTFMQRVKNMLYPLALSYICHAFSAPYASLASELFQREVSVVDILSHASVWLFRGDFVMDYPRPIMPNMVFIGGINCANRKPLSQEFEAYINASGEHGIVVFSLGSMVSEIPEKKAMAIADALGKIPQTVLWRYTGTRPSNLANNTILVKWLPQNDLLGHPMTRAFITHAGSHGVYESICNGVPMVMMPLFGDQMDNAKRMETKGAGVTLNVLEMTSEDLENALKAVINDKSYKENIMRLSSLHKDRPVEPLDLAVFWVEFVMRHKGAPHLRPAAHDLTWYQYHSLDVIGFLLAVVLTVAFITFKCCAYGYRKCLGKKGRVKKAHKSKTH
endpoint name: activity at 75 min, 100 µM (%)
All answers are understood in %, so give the number only.

Would you please look over these solved cases?
COc1cc2c(Nc3ccc(Br)cc3F)ncnc2cc1OCC1CCN(C)CC1 [Vandetanib, vandetanib]
104
CS(=O)(=O)CCNCc1ccc(-c2ccc3ncnc(Nc4ccc(OCc5cccc(F)c5)c(Cl)c4)c3c2)o1 [Lapatinib, lapatinib]
96.5

Kindly consider the entry below.
**Query** Give UGT1A3 (Homo sapiens, UniProt P35503) activity at 75 min, 100 µM for the following compound: CNC(=O)c1ccccc1Sc1ccc2c(/C=C/c3ccccn3)n[nH]c2c1 [Axitinib, axitinib]
**Result** 47.8

----------
molecular target: UGT1A4 (Homo sapiens, UniProt P22310); test: Inhibition of TFP glucuronidation by recombinant UGT1A4; conditions: human, recombinant UGT1A4, pH 7.4, probe TFP (trifluoperazine)
endpoint name: activity at 30 min, 100 µM (%)
All answers are understood in %, so give the number only.

CS(=O)(=O)CCNCc1ccc(-c2ccc3ncnc(Nc4ccc(OCc5cccc(F)c5)c(Cl)c4)c3c2)o1 [Lapatinib, lapatinib]
40.7

Kindly consider the entry below.
**Query** State, in one line, measured activity at 30 min, 100 µM of COc1cc2c(Nc3ccc(Br)cc3F)ncnc2cc1OCC1CCN(C)CC1 [Vandetanib, vandetanib]
**Result** 62.8

----------
target: UGT1A4 (Homo sapiens, UniProt P22310); assay: Inhibition of TFP glucuronidation by recombinant UGT1A4; settings: human, pH 7.4
endpoint name: activity at 30 min, 100 µM (%)
All answers are understood in %, so give the number only.

**Query** State, in one line, measured activity at 30 min, 100 µM of CNC(=O)c1ccccc1Sc1ccc2c(/C=C/c3ccccn3)n[nH]c2c1 [Axitinib, axitinib]
**Result** 14.9

----------
Biological target: UniProtKB P22310
Sequence (P22310 29-534): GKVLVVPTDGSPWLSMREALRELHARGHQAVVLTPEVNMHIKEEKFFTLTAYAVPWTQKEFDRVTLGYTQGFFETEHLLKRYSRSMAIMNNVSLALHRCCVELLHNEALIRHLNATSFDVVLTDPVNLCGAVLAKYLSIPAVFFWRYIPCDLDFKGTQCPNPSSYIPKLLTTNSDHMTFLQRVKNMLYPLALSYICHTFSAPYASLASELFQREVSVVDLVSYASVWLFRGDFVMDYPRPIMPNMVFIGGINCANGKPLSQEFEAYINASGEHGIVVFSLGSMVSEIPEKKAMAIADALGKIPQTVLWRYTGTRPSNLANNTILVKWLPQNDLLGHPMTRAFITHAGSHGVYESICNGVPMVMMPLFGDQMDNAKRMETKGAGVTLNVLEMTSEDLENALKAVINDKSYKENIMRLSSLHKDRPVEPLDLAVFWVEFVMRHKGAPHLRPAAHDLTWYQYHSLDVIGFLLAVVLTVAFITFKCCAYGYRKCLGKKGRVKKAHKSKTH
Test: Inhibition of TFP glucuronidation by recombinant UGT1A4
Readings of IC50 for the listed molecules

CNC(=O)c1ccccc1Sc1ccc2c(/C=C/c3ccccn3)n[nH]c2c1
14.2 µM

**Query** State, in one line, measured IC50 of CS(=O)(=O)CCNCc1ccc(-c2ccc3ncnc(Nc4ccc(OCc5cccc(F)c5)c(Cl)c4)c3c2)o1
**Result** 3.8 µM

----------
Readings of activity at 120 min, 100 µM for the listed compounds
biological target: UGT1A1 (Homo sapiens); assay: Inhibition of 4-MU glucuronidation by recombinant UGT1A1; conditions: human, recombinant UGT1A1, pH 7.4, probe 4-MU
Sequence (P22309 26-533): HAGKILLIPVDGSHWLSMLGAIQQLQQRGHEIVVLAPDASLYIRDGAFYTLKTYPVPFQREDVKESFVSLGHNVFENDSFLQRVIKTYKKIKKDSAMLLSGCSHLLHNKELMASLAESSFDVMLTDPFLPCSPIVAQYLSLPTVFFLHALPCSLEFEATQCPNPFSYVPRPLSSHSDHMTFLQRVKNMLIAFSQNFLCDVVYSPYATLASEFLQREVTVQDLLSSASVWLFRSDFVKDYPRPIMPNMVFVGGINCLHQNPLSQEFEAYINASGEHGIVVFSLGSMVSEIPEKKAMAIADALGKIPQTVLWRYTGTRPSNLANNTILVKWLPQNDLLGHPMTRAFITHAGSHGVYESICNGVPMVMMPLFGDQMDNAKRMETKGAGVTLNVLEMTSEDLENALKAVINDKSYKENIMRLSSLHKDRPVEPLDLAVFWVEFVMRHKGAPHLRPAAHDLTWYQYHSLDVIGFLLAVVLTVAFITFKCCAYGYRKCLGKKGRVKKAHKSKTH
All answers are understood in %, so give the number only.

Would you please look over these solved cases?
COc1cc2c(Nc3ccc(Br)cc3F)ncnc2cc1OCC1CCN(C)CC1
48.9
CNC(=O)c1ccccc1Sc1ccc2c(/C=C/c3ccccn3)n[nH]c2c1
56.7
CS(=O)(=O)CCNCc1ccc(-c2ccc3ncnc(Nc4ccc(OCc5cccc(F)c5)c(Cl)c4)c3c2)o1
30.8

Kindly consider the entry below.
**Query** State, in one line, measured activity at 120 min, 100 µM of O=C(O)Cc1ccccc1Nc1c(Cl)cccc1Cl
**Result** 37

----------
biological target: UGT2B7 (Homo sapiens, UniProt P16662); assay: Inhibition of 4-MU glucuronidation by recombinant UGT2B7; conditions: recombinant UGT2B7, pH 7.4, probe 4-MU
Sequence (P16662 24-529): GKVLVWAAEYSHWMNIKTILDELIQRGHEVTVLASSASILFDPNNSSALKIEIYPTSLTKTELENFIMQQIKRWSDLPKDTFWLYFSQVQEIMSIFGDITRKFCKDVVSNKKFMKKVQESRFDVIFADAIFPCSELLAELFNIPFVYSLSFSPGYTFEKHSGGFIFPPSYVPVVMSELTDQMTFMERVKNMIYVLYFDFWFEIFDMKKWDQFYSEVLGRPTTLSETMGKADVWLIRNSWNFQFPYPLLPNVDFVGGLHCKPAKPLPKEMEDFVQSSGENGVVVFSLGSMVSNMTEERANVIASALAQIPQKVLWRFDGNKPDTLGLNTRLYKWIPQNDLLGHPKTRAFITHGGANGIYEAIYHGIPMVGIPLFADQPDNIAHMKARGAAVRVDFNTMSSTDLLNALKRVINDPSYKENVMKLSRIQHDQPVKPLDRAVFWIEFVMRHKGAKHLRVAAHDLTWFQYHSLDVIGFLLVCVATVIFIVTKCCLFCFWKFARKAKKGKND
endpoint name: activity at 120 min, 100 µM (%)
All answers are understood in %, so give the number only.

CNC(=O)c1ccccc1Sc1ccc2c(/C=C/c3ccccn3)n[nH]c2c1 [Axitinib, axitinib]
55.9
CS(=O)(=O)CCNCc1ccc(-c2ccc3ncnc(Nc4ccc(OCc5cccc(F)c5)c(Cl)c4)c3c2)o1 [Lapatinib, lapatinib]
90.5

Kindly consider the entry below.
**Query** State, in one line, measured activity at 120 min, 100 µM of COc1cc2c(Nc3ccc(Br)cc3F)ncnc2cc1OCC1CCN(C)CC1 [Vandetanib, vandetanib]
**Result** 49.8

----------
Molecular target: UGT1A9 (Homo sapiens, UniProt O60656)
Sequence (O60656 26-530): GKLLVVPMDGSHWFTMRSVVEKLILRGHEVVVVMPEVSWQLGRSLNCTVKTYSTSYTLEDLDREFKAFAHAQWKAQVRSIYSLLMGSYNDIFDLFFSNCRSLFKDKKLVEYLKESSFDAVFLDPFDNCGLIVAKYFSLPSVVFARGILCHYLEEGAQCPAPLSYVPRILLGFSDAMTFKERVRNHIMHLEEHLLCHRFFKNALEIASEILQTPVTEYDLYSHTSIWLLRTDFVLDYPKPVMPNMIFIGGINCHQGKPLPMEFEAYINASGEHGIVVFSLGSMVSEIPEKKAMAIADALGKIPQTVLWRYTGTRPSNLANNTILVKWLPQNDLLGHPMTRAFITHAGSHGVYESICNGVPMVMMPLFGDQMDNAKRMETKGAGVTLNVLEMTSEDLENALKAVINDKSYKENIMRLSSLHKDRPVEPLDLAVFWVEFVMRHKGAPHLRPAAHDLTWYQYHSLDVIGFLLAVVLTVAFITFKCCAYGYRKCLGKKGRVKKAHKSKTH
Assay: in vitro
Settings: recombinant UGT1A9, pH 7.4, probe 4-MU
endpoint name: activity at 30 min, 100 µM (%)
All answers are understood in %, so give the number only.

O=C(O)Cc1ccccc1Nc1c(Cl)cccc1Cl
15.2
CS(=O)(=O)CCNCc1ccc(-c2ccc3ncnc(Nc4ccc(OCc5cccc(F)c5)c(Cl)c4)c3c2)o1
51.1
COc1cc2c(Nc3ccc(Br)cc3F)ncnc2cc1OCC1CCN(C)CC1
14.1

Kindly consider the entry below.
**Query** State, in one line, measured activity at 30 min, 100 µM of CNC(=O)c1ccccc1Sc1ccc2c(/C=C/c3ccccn3)n[nH]c2c1
**Result** 44.8

----------
target: UGT1A7 (Homo sapiens); test: Inhibition of 4-MU glucuronidation by recombinant UGT1A7; details: human, recombinant UGT1A7, pH 7.4, probe 4-MU
Sequence (Q9HAW7 26-530): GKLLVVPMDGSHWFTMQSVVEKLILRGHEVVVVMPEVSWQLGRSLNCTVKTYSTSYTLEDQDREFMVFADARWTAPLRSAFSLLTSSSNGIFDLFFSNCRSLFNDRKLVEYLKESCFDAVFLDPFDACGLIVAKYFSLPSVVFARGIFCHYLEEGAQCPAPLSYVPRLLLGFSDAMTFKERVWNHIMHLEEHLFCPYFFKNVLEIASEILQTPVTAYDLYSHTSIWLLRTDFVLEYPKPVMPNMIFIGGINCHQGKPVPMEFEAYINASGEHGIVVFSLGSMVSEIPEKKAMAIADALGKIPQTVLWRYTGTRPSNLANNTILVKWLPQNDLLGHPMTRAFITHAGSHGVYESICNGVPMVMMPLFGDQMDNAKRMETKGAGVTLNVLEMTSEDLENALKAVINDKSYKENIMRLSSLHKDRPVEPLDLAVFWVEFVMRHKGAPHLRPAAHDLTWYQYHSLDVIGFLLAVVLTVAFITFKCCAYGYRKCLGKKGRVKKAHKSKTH
Readings of activity at 30 min, 100 µM for the listed molecules

Would you please look over these solved cases?
CS(=O)(=O)CCNCc1ccc(-c2ccc3ncnc(Nc4ccc(OCc5cccc(F)c5)c(Cl)c4)c3c2)o1 [Lapatinib, lapatinib]
37.7%
O=C(O)Cc1ccccc1Nc1c(Cl)cccc1Cl [diclofenac]
25.6%
CNC(=O)c1ccccc1Sc1ccc2c(/C=C/c3ccccn3)n[nH]c2c1 [Axitinib, axitinib]
25%

**Query** State, in one line, measured activity at 30 min, 100 µM of COc1cc2c(Nc3ccc(Br)cc3F)ncnc2cc1OCC1CCN(C)CC1 [Vandetanib, vandetanib]
**Result** 22.7%

----------
target: UGT2B17 (Homo sapiens, UniProt O75795); assay: Inhibition of 4-MU glucuronidation by recombinant UGT2B17; conditions: recombinant UGT2B17, pH 7.4, probe 4-MU
Sequence (O75795 24-530): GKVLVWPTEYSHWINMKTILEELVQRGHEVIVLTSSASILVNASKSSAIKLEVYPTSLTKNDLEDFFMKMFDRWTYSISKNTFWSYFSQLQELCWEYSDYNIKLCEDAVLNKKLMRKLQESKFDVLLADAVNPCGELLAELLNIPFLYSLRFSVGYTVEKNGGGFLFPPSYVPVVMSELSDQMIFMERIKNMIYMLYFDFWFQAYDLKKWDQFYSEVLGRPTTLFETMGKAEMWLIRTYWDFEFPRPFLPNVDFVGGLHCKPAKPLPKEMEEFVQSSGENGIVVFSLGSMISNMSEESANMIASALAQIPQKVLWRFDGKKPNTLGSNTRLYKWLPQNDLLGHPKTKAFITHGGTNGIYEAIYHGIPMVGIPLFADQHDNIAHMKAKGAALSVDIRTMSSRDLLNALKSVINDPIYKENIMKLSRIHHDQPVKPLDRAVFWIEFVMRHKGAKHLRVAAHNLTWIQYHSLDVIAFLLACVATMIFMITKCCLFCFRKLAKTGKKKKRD
Readings of activity at 120 min, 100 µM for the listed molecules
All answers are understood in %, so give the number only.

Would you please look over these solved cases?
CS(=O)(=O)CCNCc1ccc(-c2ccc3ncnc(Nc4ccc(OCc5cccc(F)c5)c(Cl)c4)c3c2)o1
94.8
CNC(=O)c1ccccc1Sc1ccc2c(/C=C/c3ccccn3)n[nH]c2c1
55.9

Kindly consider the entry below.
**Query** State, in one line, measured activity at 120 min, 100 µM of COc1cc2c(Nc3ccc(Br)cc3F)ncnc2cc1OCC1CCN(C)CC1
**Result** 69.7

----------
Biological target: UniProt:Q9HAW8
Sequence (Q9HAW8 26-530): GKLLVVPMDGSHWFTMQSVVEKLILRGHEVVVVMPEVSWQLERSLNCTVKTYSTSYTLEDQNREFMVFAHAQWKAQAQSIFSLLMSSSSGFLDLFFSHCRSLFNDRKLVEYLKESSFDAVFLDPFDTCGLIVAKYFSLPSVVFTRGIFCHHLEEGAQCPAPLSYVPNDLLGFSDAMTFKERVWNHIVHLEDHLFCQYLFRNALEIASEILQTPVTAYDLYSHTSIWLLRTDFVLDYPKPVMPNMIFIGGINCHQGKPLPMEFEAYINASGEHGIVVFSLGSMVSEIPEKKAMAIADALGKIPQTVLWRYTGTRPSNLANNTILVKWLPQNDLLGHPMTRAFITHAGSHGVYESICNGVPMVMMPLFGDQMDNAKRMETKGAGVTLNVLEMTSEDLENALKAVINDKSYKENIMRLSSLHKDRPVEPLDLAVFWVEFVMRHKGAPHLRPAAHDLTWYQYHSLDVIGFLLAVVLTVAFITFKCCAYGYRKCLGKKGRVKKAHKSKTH
Assay: Inhibition of 4-MU glucuronidation by recombinant UGT1A10
Conditions: recombinant UGT1A10, pH 7.4, probe 4-MU
endpoint name: activity at 120 min, 100 µM

Would you please look over these solved cases?
CCCCC1C(=O)N(c2ccccc2)N(c2ccccc2)C1=O
37.8%
CNC(=O)c1ccccc1Sc1ccc2c(/C=C/c3ccccn3)n[nH]c2c1
55.5%
CS(=O)(=O)CCNCc1ccc(-c2ccc3ncnc(Nc4ccc(OCc5cccc(F)c5)c(Cl)c4)c3c2)o1
73.6%

Kindly consider the entry below.
**Query** State, in one line, measured activity at 120 min, 100 µM of COc1cc2c(Nc3ccc(Br)cc3F)ncnc2cc1OCC1CCN(C)CC1
**Result** 49%
